- Tested on: CCRF-CEM leukemia
- experimental protocol: NCI-60 one-dose screen, 48 h (100 = growth as untreated, 0 = no growth, -100 = all killed)
- setup conditions: 10 µM
About 83,000 compounds went through this panel and 20% of them were active in at least one assay; those are over-represented in the sample as a whole.
value type: growth (%)

molecule=COc1cc(-c2nc3cc(Cl)c(Cl)cc3[nH]2)ccc1OCc1nnc(-c2ccc(Br)cc2)o1 value_reported=7.7
molecule=CCCCCc1ccc(S(=O)(=O)Nc2cc(-c3csc(N(C)C(C)=O)n3)ccc2N2CCN(C)CC2)cc1 value_reported=-27.5
molecule=Cn1cc(/C=N/Nc2cccc(Cl)n2)c2ccccc21 value_reported=48.2
molecule="CC1(c2ccccc2)NC(=O)N(CC(=O)Nc2ccc(C(=O)/C=C/c3ccccc3)cc2)C1=O (stereo unspecified)" value_reported=35.7
molecule=CCN1CCN(c2ccc(NC(=O)Nc3ccc(-c4cc(C(=O)NC(C)C)c5ncccc5n4)cc3)cc2C(F)(F)F)CC1 value_reported=-44.5
molecule=Clc1ccc(/C=N/Nc2ncnc3sc4c(c23)CCN(Cc2ccccc2)C4)cc1 value_reported=-24.2
molecule=CC(C)(C)Nc1nc2cc(Cl)c(Cl)cc2nc1S(C)(=O)=O value_reported=-17.9
molecule=COc1ccc2[nH]c(O)c(N=NC(=O)COc3ccc(NC(=O)Nc4ccc(Cl)cc4)cc3)c2c1 value_reported=8.83
molecule=N#Cc1c(-c2ccc(F)cc2)nc(SCc2ccc([N+](=O)[O-])cc2)nc1N1CCOCC1 value_reported=77.2
molecule=N#Cc1c(NC(=O)c2cccc(C(F)(F)F)c2)sc2c1CCC(O)=C2 value_reported=21.9
molecule=COC[C@@H](CC(C)C)N=C1NC(=O)/C(=C/c2ccc3ncoc3c2)N1 value_reported=15.2
molecule=O=C(NO)c1ccc(CNC(=O)[C@H]2Cc3c([nH]c4ccccc34)[C@H](c3ccc(Cl)cc3)N2)cc1 value_reported=17.4
molecule=Cn1cc(-c2cc(N)n3nc(-c4c[nH]c5ccc(Br)cc45)cc3n2)c2cccnc21 value_reported=-19.1
molecule=COc1cc(Cn2c(C(F)(F)F)cc3c(Cl)ncnc32)ccn1 value_reported=-14.3
molecule=N#Cc1ccc(-c2nn(-c3ccc(C(=O)O)cc3)cc2CNc2ccc(Oc3ccccc3)cc2)cc1 value_reported=19.3
molecule="O=C1CCC(N2Cc3c(C#CCCCNC(=O)c4ccc(NC(=O)[C@@H]5NC6(CCCCC6)[C@@]6(C(=O)Nc7cc(Cl)ccc76)[C@H]5c5cccc(Cl)c5F)cc4)cccc3C2=O)C(=O)N1 (stereo partly specified)" value_reported=47.9
molecule=Cc1noc2c(Cc3ccc([N+](=O)[O-])cc3)nn(CC(=O)N/N=C/c3ccc(Br)cc3)c(=O)c12 value_reported=103
molecule=C=C1CC[C@H](C(=C)C)[C@H]2C=C(C)C(=O)C3=C(C(=O)[C@@](C)(O)C3)[C@H]12 value_reported=-5.05
molecule=COc1cc2c(cc1OC)CN(CCCCOc1cc(O)c3c(=O)cc(-c4ccccc4)oc3c1)CC2 value_reported=32.2
molecule=CCCn1c(=O)c2[nH]c(-c3ccc(OCc4nc5ccc(C(F)(F)F)cc5[nH]4)cc3)nc2n(CCC)c1=O value_reported=35.3
molecule=O=c1[nH]c2ccccc2cc1CSc1ccc(Nc2nccc(-c3ccc4c(c3)OCO4)n2)cc1 value_reported=98.4
molecule=NS(=O)(=O)c1ccc(N=Nc2c(O)n(CC(=O)Nc3ccccc3Br)c3ccccc23)cc1 value_reported=57.2
molecule=CCN1CCN(c2ccc(NC(=O)Nc3ccc4c(c3F)CCN4c3ccnc(C(=O)NC)c3)cc2C(F)(F)F)CC1 value_reported=-42.3
molecule=CN(C)CCNC(=O)OCCCCOc1cc(O)c2c(=O)cc(-c3ccccc3)oc2c1 value_reported=-5.67
molecule=Cc1ccc(S(=O)(=O)c2nc(-c3ccccc3)oc2S(=O)(=O)CC(=O)N2CCCC2)cc1 value_reported=-64.4
molecule="COc1ccc(C2NC(=S)NC(C)=C2C(=O)OC(C)C)cc1OC (stereo unspecified)" value_reported=95.9
molecule=CC(=O)c1ccc(NC(=O)NCn2c(=O)[nH]c3ccccc3c2=O)cc1 value_reported=91.6
molecule=Cc1cc2c(c(O)c1Br)-c1ncoc1C(=O)[C@]1(C)CC[C@H](C(C)C)[C@H]21 value_reported=14.2
molecule=COc1cccc(-c2ccc(/C=N/NC(=O)c3[nH]c4ccc(Br)cc4c3-c3ccccc3)o2)c1 value_reported=-5.45
molecule=C/C(=C\c1ccc(O)cc1O)c1ccc2ccc(O)cc2[o+]1 value_reported=55.8
molecule=O/N=C(\CSc1nnc(-c2c[nH]c3ccccc23)n1-c1ccccc1)c1ccc(Br)cc1 value_reported=-6.14
